- TESTED_ON: human MDM4 protein (amino acids 2-185) (Homo sapiens (Human), UniProt O15151)
- Sequence (O15151 2-185): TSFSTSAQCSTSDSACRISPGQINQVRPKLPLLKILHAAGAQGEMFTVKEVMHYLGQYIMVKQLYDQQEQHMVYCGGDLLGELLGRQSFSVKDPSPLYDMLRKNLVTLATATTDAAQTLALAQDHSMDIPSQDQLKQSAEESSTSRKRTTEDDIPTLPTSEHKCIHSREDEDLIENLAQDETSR
- EXPERIMENT_NOTES: TR-FRET p53-MDM4 Assay 1
- Type: binding
- COND: 2.5 nM MDM4-biotinylated, 10 nM Cy5-p53 peptide
Friendly reminder: IC50 below 2 µM is Met, at or above is Not met.

{"MOLECULE": "COc1ccncc1-c1nc2c(n1C(C)C)C(c1ccc(Cl)cc1C)N(c1cc(Cl)ccc1C)C(=O)N2 (centres unmarked)", "TESTED_ON": "human MDM4 protein (amino acids 2-185) (Homo sapiens (Human), UniProt O15151)", "LABEL": "Not met"}
{"MOLECULE": "COc1ccncc1-c1nc2c(n1C(C)C)C(c1ccc(Cl)cc1)N(c1cccc(Cl)c1F)C(=O)N2 (centres unmarked)", "TESTED_ON": "human MDM4 protein (amino acids 2-185) (Homo sapiens (Human), UniProt O15151)", "LABEL": "Not met"}
{"MOLECULE": "COc1ccccc1-c1nc2c(n1C(C)C)C(c1ccc(Cl)cc1C)N(c1cc(Cl)ccc1C)C(=O)N2 (centres unmarked)", "TESTED_ON": "human MDM4 protein (amino acids 2-185) (Homo sapiens (Human), UniProt O15151)", "LABEL": "Met"}
{"MOLECULE": "COc1ccccc1-c1nc2c(n1C(C)C)C(c1ccc(Cl)cc1C)N(c1cccc(Cl)c1F)C(=O)N2 (centres unmarked)", "TESTED_ON": "human MDM4 protein (amino acids 2-185) (Homo sapiens (Human), UniProt O15151)", "LABEL": "Not met"}
{"MOLECULE": "COc1ccccc1-c1nc2c(n1C(C)C)C(c1ccc(Cl)cc1)N(c1cccc(Cl)c1F)C(=O)N2 (centres unmarked)", "TESTED_ON": "human MDM4 protein (amino acids 2-185) (Homo sapiens (Human), UniProt O15151)", "LABEL": "Met"}

====

- TESTED_ON: human MDM2 protein (amino acids 2-188) (Homo sapiens (Human), UniProt Q00987)
- Sequence (Q00987 2-188): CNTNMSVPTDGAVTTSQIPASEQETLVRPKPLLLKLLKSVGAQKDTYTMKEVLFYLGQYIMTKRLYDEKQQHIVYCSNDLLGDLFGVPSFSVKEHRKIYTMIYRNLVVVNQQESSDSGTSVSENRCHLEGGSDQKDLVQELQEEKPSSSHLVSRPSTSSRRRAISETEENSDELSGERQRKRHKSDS
- EXPERIMENT_NOTES: TR-FRET p53-MDM2 Assay 1
- Assay type: binding
- COND: 1.25 nM MDM2-biotinylated, 10 nM Cy5-p53 peptide

{"COMPOUND": "COc1ccncc1-c1nc2c(n1C(C)C)C(c1ccc(Cl)cc1C)N(c1cc(Cl)ccc1C)C(=O)N2 (stereo not drawn)", "IC50, µM": 0.0031}
{"COMPOUND": "COc1ccccc1-c1nc2c(n1C(C)C)C(c1ccc(Cl)cc1)N(c1cccc(Cl)c1F)C(=O)N2 (stereo not drawn)", "IC50, µM": 0.002}
{"COMPOUND": "COc1ccccc1-c1nc2c(n1C(C)C)C(c1ccc(Cl)cc1C)N(c1cccc(Cl)c1F)C(=O)N2 (stereo not drawn)", "IC50, µM": 0.0021}
{"COMPOUND": "COc1ccccc1-c1nc2c(n1C(C)C)C(c1ccc(Cl)cc1C)N(c1cc(Cl)ccc1C)C(=O)N2 (stereo not drawn)", "IC50, µM": 0.0018}
{"COMPOUND": "CC(C)n1c(Br)nc2c1C(c1ccc(Cl)cc1)N(c1cccc(Cl)c1F)C(=O)N2 (stereo not drawn)", "IC50, µM": 0.12}
{"COMPOUND": "COc1ccncc1-c1nc2c(n1C(C)C)C(c1ccc(Cl)cc1)N(c1cccc(Cl)c1F)C(=O)N2 (stereo not drawn)", "IC50, µM": 0.0085}

====

Quick list: log10 of IC50 per entry.
- TESTED_ON: human MDM2 protein (amino acids 2-188) (Homo sapiens (Human), UniProt Q00987)
- EXPERIMENT_NOTES: TR-FRET p53-MDM2 Assay 2 (modified: 0.1 nM MDM2)
- Format: binding
- COND: 0.1 nM MDM2, 0.1 nM Europium labeled streptavidin, Tecan genios Pro reader
PROPERTY_NAME: log10 of IC50 (log10 of the value in nM)

{"COMPOUND": "COc1ccc(C#N)cc1-c1nc2c(n1C(C)C)C(c1ccc(Cl)cc1C)N(c1cc(Cl)ccc1C)C(=O)N2 (centres unmarked)", "TESTED_ON": "human MDM2 protein (amino acids 2-188) (Homo sapiens (Human), UniProt Q00987)", "log10 of IC50": -0.38}
{"COMPOUND": "COc1ccccc1-c1nc2c(n1C(C)C)C(c1ccc(Cl)cc1)N(c1cccc(Cl)c1F)C(=O)N2 (centres unmarked)", "TESTED_ON": "human MDM2 protein (amino acids 2-188) (Homo sapiens (Human), UniProt Q00987)", "log10 of IC50": -0.05}
{"COMPOUND": "COc1ncc(-c2nc3c(n2C(C)C)C(c2ccc(Cl)cc2)N(c2cc(Cl)cn(C)c2=O)C(=O)N3)c(OC)n1 (centres unmarked)", "TESTED_ON": "human MDM2 protein (amino acids 2-188) (Homo sapiens (Human), UniProt Q00987)", "log10 of IC50": 0.46}
{"COMPOUND": "COc1ccc(C(=O)NCCO)cc1-c1nc2c(n1C(C)C)C(c1ccc(Cl)cc1C)N(c1cc(Cl)ccc1C)C(=O)N2 (centres unmarked)", "TESTED_ON": "human MDM2 protein (amino acids 2-188) (Homo sapiens (Human), UniProt Q00987)", "log10 of IC50": -0.35}
{"COMPOUND": "COc1ncc(-c2nc3c(n2C(C)C)C(c2ccc(Cl)c(F)c2)N(c2cc(Cl)c[nH]c2=O)C(=O)N3)c(OC)n1 (centres unmarked)", "TESTED_ON": "human MDM2 protein (amino acids 2-188) (Homo sapiens (Human), UniProt Q00987)", "log10 of IC50": -0.45}
{"COMPOUND": "COc1nc(N(C)C)ncc1-c1nc2c(n1C(C)C)C(c1ccc(Cl)c(F)c1)N(c1cc(Cl)c[nH]c1=O)C(=O)N2 (centres unmarked)", "TESTED_ON": "human MDM2 protein (amino acids 2-188) (Homo sapiens (Human), UniProt Q00987)", "log10 of IC50": -0.45}
{"COMPOUND": "COc1ccccc1-c1nc2c(n1C(C)C)C(c1ccc(C#N)cc1)N(c1cc(Cl)ccc1C)C(=O)N2 (centres unmarked)", "TESTED_ON": "human MDM2 protein (amino acids 2-188) (Homo sapiens (Human), UniProt Q00987)", "log10 of IC50": -0.14}
{"COMPOUND": "COc1ncc(-c2nc3c(n2C(C)C)C(c2ccc(Cl)c(F)c2)N(c2cc(Cl)cn(C)c2=O)C(=O)N3)c(OC)n1 (centres unmarked)", "TESTED_ON": "human MDM2 protein (amino acids 2-188) (Homo sapiens (Human), UniProt Q00987)", "log10 of IC50": 0.22}
{"COMPOUND": "COc1ccc(F)cc1-c1nc2c(n1C(C)C)C(c1ccc(Cl)cc1C)N(c1cc(Cl)ccc1C)C(=O)N2 (centres unmarked)", "TESTED_ON": "human MDM2 protein (amino acids 2-188) (Homo sapiens (Human), UniProt Q00987)", "log10 of IC50": -0.27}
{"COMPOUND": "COc1ncc(-c2nc3c(n2C(C)C)C(c2ccc(Cl)c(F)c2)N(c2ccc(F)c(Cl)c2)C(=O)N3)c(OC)n1 (centres unmarked)", "TESTED_ON": "human MDM2 protein (amino acids 2-188) (Homo sapiens (Human), UniProt Q00987)", "log10 of IC50": -0.35}
{"COMPOUND": "COc1ncc(-c2nc3c(n2C(C)C)C(c2ccc(Cl)c(F)c2)N(c2cc(Cl)c(=O)n(C)c2)C(=O)N3)c(OC)n1 (centres unmarked)", "TESTED_ON": "human MDM2 protein (amino acids 2-188) (Homo sapiens (Human), UniProt Q00987)", "log10 of IC50": -0.03}
{"COMPOUND": "COc1nc(N(C)C)ncc1-c1nc2c(n1C(C)C)C(c1ccc(Cl)c(F)c1)N(c1cc(Cl)cn(C)c1=O)C(=O)N2 (centres unmarked)", "TESTED_ON": "human MDM2 protein (amino acids 2-188) (Homo sapiens (Human), UniProt Q00987)", "log10 of IC50": -0.13}
{"COMPOUND": "COc1nc(N)ncc1-c1nc2c(n1C(C)C)C(c1ccc(Cl)cc1)N(c1cc(Cl)cn(C)c1=O)C(=O)N2 (centres unmarked)", "TESTED_ON": "human MDM2 protein (amino acids 2-188) (Homo sapiens (Human), UniProt Q00987)", "log10 of IC50": 0.63}
{"COMPOUND": "COc1nc(N(C)C)ncc1-c1nc2c(n1C(C)C)C(c1ccc(Cl)c(F)c1)N(c1ccc(F)c(Cl)c1)C(=O)N2 (centres unmarked)", "TESTED_ON": "human MDM2 protein (amino acids 2-188) (Homo sapiens (Human), UniProt Q00987)", "log10 of IC50": -0.41}
{"COMPOUND": "COc1nc(N(C)C)ncc1-c1nc2c(n1C(C)C)C(c1ccc(Cl)cc1)N(c1cc(Cl)cn(C)c1=O)C(=O)N2 (centres unmarked)", "TESTED_ON": "human MDM2 protein (amino acids 2-188) (Homo sapiens (Human), UniProt Q00987)", "log10 of IC50": -0.23}
{"COMPOUND": "COc1ccccc1-c1nc2c(n1C(C)C)C(c1ccc(C#N)cc1)N(c1cccc(Cl)c1F)C(=O)N2 (centres unmarked)", "TESTED_ON": "human MDM2 protein (amino acids 2-188) (Homo sapiens (Human), UniProt Q00987)", "log10 of IC50": -0.33}
{"COMPOUND": "COc1ccc(CO)cc1-c1nc2c(n1C(C)C)C(c1ccc(Cl)cc1C)N(c1cc(Cl)ccc1C)C(=O)N2 (centres unmarked)", "TESTED_ON": "human MDM2 protein (amino acids 2-188) (Homo sapiens (Human), UniProt Q00987)", "log10 of IC50": -0.43}
